- assayed-system: T1, Recombinant purified human PD-1 protein, residues Leu25-Thr168, with a C-terminal 6-His tag (human, UniProt Q15116)
- T1 construct: programmed cell death protein 1 (PD-1), human, residues Leu25-Thr168; monomer; the results call it wild-type or full length PD-1 against the P35-Q167 fragment; also called PD-1-His; PD-1 His-tagged monomer; source: bought: R&D Systems; not shown: His6, C-terminal, kept
- T1 sequence (Q15116 25-168): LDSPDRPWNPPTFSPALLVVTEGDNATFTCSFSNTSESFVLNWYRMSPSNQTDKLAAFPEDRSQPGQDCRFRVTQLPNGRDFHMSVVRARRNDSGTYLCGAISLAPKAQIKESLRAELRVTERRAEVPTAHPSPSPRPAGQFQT
- method-notes: SPR; Carterra LSA, CMD-P (flat) chip; mAbs captured on goat anti-human IgG Fc in a 384-spot array; PD-1-His analyte 0.5-1000 nM, 5 min association, 20 min dissociation; HBS-ET + 0.5 mg/ml BSA; 1:1 Langmuir fit; mean of spots; apparent
- experimental-conditions: both partners purified
metric: koff (s⁻¹)

[[record]]
binder = "mAb21 (analog of sintilimab) (antibody, V domains shown, VH; IgG4 heavy-chain constant region with stabilizing 226CPPC hinge; VL; IgG4 analog; source: HEK293 suspension cells, cotransfected, purified (Protein A)) VH: QVQLVQSGAEVKKPGSSVKVSCKASGGTFSSYAISWVRQAPGQGLEWMGLIIPMFDTAGYAQKFQGRVAITVDESTSTAYMELSSLRSEDTAVYYCARAEHSSTGTFDYWGQGTLVTVSS VL: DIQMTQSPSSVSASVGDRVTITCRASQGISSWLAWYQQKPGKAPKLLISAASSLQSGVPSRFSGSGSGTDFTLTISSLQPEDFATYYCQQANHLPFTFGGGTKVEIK"
metric = "koff"
comparator = "<"
observed_measurement = "4.3e-05"

[[record]]
binder = "mAb19 (analog of sasanlimab) (antibody, V domains shown, VH; IgG4 heavy-chain constant region with stabilizing 226CPPC hinge; VL; IgG4 analog; source: HEK293 suspension cells, cotransfected, purified (Protein A)) VH: QVQLVQSGAEVKKPGASVKVSCKASGYTFTSYWINWVRQAPGQGLEWMGNIYPGSSLTNYNEKFKNRVTMTRDTSTSTVYMELSSLRSEDTAVYYCARLSTGTFAYWGQGTLVTVSS VL: DIVMTQSPDSLAVSLGERATINCKSSQSLWDSGNQKNFLTWYQQKPGQPPKLLIYWTSYRESGVPDRFSGSGSGTDFTLTISSLQAEDVAVYYCQNDYFYPHTFGGGTKVEIK"
metric = "koff"
comparator = "<"
observed_measurement = "4.3e-05"

[[record]]
binder = "mAb04 (analog of retifanlimab) (antibody, V domains shown, VH; IgG4 heavy-chain constant region with stabilizing 226CPPC hinge; VL; IgG4 analog; source: HEK293 suspension cells, cotransfected, purified (Protein A)) VH: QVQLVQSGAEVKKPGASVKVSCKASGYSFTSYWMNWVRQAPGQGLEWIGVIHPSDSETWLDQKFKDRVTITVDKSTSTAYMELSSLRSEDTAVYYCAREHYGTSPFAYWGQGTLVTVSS VL: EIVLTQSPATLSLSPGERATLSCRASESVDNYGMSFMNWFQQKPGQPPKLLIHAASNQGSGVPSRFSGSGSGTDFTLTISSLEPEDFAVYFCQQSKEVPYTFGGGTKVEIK"
metric = "koff"
comparator = "="
observed_measurement = 0.00039

[[record]]
binder = "mAb16 (analog of dostarlimab) (antibody, V domains shown, VH; IgG4 heavy-chain constant region with stabilizing 226CPPC hinge; VL; IgG4 analog; source: HEK293 suspension cells, cotransfected, purified (Protein A)) VH: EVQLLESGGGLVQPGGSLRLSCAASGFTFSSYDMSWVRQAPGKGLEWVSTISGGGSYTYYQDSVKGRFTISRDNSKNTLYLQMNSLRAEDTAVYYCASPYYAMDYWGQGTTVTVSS VL: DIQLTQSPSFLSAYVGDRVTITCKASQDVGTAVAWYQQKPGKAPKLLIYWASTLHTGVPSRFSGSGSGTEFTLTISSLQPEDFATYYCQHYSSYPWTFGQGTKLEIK"
metric = "koff"
comparator = "="
observed_measurement = 0.00039

[[record]]
binder = "mAb03 (analog of tislelizumab) (antibody, V domains shown, VH; IgG4 heavy-chain constant region with stabilizing 226CPPC hinge; VL; IgG4 analog; source: HEK293 suspension cells, cotransfected, purified (Protein A)) VH: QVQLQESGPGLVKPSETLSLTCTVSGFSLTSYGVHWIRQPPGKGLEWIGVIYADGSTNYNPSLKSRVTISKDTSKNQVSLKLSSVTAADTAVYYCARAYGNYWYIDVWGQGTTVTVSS VL: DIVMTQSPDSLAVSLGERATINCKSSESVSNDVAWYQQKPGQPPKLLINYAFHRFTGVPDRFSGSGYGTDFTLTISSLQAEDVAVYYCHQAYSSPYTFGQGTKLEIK"
metric = "koff"
comparator = "<"
observed_measurement = "4.3e-05"

[[record]]
binder = "mAb23 (analog of cemiplimab) (antibody, V domains shown, VH; IgG4 heavy-chain constant region with stabilizing 226CPPC hinge; VL; IgG4 analog; source: HEK293 suspension cells, cotransfected, purified (Protein A)) VH: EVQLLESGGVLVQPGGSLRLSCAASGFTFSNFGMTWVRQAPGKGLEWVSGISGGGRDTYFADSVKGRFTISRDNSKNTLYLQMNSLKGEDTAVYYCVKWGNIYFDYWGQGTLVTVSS VL: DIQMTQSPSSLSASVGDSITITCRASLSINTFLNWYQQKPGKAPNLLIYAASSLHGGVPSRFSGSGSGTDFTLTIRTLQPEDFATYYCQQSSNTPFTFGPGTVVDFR"
metric = "koff"
comparator = "="
observed_measurement = 0.00028

[[record]]
binder = "mAb17 (analog of camrelizumab) (antibody, V domains shown, VH; IgG4 heavy-chain constant region with stabilizing 226CPPC hinge; VL; IgG4 analog; source: HEK293 suspension cells, cotransfected, purified (Protein A)) VH: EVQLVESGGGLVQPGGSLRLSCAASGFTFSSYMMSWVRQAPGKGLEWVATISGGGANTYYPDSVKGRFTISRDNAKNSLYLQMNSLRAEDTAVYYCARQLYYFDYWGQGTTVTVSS VL: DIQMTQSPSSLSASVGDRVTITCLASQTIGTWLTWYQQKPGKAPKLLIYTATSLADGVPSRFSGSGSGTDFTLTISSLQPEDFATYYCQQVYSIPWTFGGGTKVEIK"
metric = "koff"
comparator = "="
observed_measurement = 0.00073


Values compiled from paper PMC7058304.
